Target: CYP1A2 (Homo sapiens, UniProt P05177)
Construct: tissue XenoTech; host or cells: pooled human liver microsomes
Sequence (P05177 1-516): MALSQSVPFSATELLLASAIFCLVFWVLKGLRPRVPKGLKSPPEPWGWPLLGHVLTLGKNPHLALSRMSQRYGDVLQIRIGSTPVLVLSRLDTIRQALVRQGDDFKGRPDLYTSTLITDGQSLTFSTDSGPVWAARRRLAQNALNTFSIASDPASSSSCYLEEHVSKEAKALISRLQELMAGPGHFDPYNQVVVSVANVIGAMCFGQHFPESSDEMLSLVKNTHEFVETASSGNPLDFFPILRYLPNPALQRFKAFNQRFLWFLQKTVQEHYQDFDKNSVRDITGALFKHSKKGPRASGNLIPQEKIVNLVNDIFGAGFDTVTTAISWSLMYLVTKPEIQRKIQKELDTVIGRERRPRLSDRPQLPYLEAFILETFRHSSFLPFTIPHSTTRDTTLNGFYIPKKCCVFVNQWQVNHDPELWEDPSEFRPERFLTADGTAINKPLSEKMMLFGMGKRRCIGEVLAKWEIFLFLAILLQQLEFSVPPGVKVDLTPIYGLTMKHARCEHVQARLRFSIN
Assay: Human liver CYP inhibition assay (cocktail, pooled HLM)
Format: in vitro ADME
pIC50: −log10 of the molar value.
recordedEndpoint: pIC50

Prompt: Please report pIC50 for the following compound: C[C@@]1(O)CC[C@H]2[C@H](CC[C@@H]3[C@@H]2CC[C@]2(C)[C@@H](C(=O)Cn4cc(C#N)cn4)CC[C@@H]32)C1
Completion: < 4.52

---

AUC(0-t) values by entry
Assay: Plasma pharmacokinetic study in rats
Assay type: in vivo, rat
Conditions: po, 24.4 umol/kg; rat plasma, i.g. 24.4 μmol/kg, n = 6
# output: bare number, implied unit µM·h

# chemicalSmiles, endpointUnit, AUC(0-t)
measured = [
    ("C[C@@]1(O)CC[C@H]2[C@H](CC[C@@H]3[C@@H]2CC[C@]2(C)[C@@H](C(=O)Cn4cc(C#N)cn4)CC[C@@H]32)C1", "µM·h", 12),
]

Proceeding to the next compound to report its AUC(0-t).
Prompt: Please report AUC(0-t) for the following compound: C[C@@]1(O)CC[C@H]2[C@H](CC[C@@H]3[C@@H]2CC[C@]2(C)[C@@H](C(=O)Cn4cnn(-c5ccnc(OCC(F)(F)F)c5)c4=O)CC[C@@H]32)C1
Completion: 80.4

---

Molecular target: α4β3δ GABAA receptor (Homo sapiens, UniProt P28472+P48169)
Construct: expressed in transfected cells; host or cells: CHO cells (transient expression)
Sequence (P48169 36-554): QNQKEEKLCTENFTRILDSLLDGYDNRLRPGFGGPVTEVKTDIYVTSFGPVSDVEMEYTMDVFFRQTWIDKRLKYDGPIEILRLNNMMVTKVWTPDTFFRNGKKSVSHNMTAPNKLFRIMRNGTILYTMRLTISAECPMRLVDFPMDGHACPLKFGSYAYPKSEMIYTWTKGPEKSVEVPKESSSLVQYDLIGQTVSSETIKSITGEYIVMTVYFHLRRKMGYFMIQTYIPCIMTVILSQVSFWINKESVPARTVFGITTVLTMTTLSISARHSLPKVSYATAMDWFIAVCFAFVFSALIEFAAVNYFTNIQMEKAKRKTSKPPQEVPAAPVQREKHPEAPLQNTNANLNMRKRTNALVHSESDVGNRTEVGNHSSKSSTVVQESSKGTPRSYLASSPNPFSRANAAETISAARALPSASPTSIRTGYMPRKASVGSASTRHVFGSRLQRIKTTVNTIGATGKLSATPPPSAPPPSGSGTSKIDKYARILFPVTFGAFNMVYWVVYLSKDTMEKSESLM
Sequence (P28472 26-473): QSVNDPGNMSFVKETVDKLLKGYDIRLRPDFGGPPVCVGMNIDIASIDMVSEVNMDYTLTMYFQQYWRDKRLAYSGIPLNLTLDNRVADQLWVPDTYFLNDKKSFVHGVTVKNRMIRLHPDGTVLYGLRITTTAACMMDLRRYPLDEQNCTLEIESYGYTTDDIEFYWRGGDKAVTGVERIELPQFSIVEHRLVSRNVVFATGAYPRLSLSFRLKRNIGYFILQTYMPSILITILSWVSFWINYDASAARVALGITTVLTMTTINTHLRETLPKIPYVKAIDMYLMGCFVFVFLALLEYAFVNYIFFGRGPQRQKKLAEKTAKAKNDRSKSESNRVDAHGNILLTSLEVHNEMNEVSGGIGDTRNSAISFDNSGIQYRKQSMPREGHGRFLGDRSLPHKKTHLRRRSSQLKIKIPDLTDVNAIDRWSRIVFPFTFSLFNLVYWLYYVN
Sequence (O14764 25-452 partner): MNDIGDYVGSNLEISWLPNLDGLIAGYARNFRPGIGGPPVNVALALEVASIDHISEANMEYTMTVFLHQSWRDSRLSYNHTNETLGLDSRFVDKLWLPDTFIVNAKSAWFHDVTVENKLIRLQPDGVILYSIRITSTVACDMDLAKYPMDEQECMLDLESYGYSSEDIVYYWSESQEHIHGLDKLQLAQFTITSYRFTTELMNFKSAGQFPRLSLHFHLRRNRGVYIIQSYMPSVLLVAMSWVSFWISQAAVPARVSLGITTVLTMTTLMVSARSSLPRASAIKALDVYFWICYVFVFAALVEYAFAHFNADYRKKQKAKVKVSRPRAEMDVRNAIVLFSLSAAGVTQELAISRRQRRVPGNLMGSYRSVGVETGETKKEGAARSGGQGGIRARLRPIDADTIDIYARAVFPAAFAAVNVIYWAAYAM
Experiment: Whole-cell electrophysiology of GABA-evoked currents, CHO cells
Format: cell-based
Details: CHO cells, current induced by 1 μmol/L GABA = 100%, n = 3
Emax values by entry

Prompt: Please report Emax for the following compound: C[C@@]1(O)CC[C@H]2[C@H](CC[C@@H]3[C@@H]2CC[C@]2(C)[C@@H](C(=O)Cn4cnn(-c5cc(Cl)ccn5)c4=O)CC[C@@H]32)C1
Completion: 589%

---

Target: CYP2D6 (Homo sapiens, UniProt P10635)
Construct: tissue XenoTech; host or cells: pooled human liver microsomes
Sequence (P10635 whole entry): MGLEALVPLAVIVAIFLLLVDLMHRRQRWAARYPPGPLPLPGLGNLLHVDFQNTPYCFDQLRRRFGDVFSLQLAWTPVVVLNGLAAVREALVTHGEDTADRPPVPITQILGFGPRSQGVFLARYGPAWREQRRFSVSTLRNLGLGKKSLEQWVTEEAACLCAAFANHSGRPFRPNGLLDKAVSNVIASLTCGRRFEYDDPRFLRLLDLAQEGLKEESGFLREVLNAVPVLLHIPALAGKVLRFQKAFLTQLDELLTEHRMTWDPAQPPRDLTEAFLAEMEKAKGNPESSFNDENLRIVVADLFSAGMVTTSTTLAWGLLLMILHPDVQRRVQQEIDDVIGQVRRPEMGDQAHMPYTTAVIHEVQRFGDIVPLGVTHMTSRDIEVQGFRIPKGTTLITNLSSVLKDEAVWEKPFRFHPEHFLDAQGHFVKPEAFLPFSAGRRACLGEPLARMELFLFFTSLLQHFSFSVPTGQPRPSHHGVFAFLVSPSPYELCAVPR
Test: Human liver CYP inhibition assay (cocktail, pooled HLM)
Type: in vitro ADME
Excerpt: The main materials used in this experiment were sourced as follows: Zuranolone from BEIWANTABIO Co., Ltd. (Shanghai, China); liver microsomes (rat and human) and CYP isoenzymes (CYP1A2, CYP2C8, CYP2D6, CYP3A4) from XenoTech (Tewksbury, MA, USA); LTK cells from the China Center for Type Culture Collection (CCTCC, Wuhan, China); and CHO cells from the National Certified Cell Bank (Shanghai, China). […]
recordedEndpoint: IC50

Prompt: Please report IC50 for the following compound: C[C@@]1(O)CC[C@H]2[C@H](CC[C@@H]3[C@@H]2CC[C@]2(C)[C@@H](C(=O)Cn4cc(C#N)cn4)CC[C@@H]32)C1
Completion: > 30 µM
